Biological target: mouse PPAR gamma (Mus musculus, UniProt P37238)
Sequence (P37238 238-503 limits assumed): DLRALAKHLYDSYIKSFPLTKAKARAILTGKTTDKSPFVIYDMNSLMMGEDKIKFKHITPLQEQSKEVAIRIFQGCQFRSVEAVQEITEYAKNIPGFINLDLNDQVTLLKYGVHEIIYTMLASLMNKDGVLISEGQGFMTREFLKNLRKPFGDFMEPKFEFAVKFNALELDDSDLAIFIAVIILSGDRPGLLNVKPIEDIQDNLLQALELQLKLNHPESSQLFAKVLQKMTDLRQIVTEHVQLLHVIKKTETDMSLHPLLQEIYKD
Test: GAL4-PPAR ligand binding domain luciferase reporter transactivation assay in transiently transfected U2-OS cells
Details: concentration giving 50% of the maximal activation obtained by the reference compound (pioglitazone), about 24 hours exposure
Outcome measure: pEC50
Recall that pEC50 is obtained by taking minus log10 of the concentration measured in molar.

response.value for O=C(Cc1ccc(OCc2ccccc2C(=O)O)cc1)NCc1ccc(C(F)(F)F)cc1 [Example 2] (field: pEC50) = 5.52
